What percent inhibition of viability was measured for each of the following?
- Tested on: NK-YS (IL-2 2.5 ng/mL);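 also: normalised to DMSO-only wells as negative and benzethonium chloride as positive control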
- PROCEDURE DETAILS: percent inhibition of viability; higher = more inhibition
- EXPERIMENTAL PARAMETERS: 72 h; 10 nM
Report only the number, with the unit % understood.

Using the record for S=C(NCc1ccc2c(c1)OCO2)N1CCN(c2ncnc3c2oc2ccccc23)CC1 [Amuvatinib] (max concentration tested 10000 nM) , report its percent inhibition of viability.
-6.84

Form field: reported percent inhibition of viability of CC(C)(C#N)c1cc(Cn2cncn2)cc(C(C)(C)C#N)c1 [Anastrozole] (max concentration tested 10000 nM)
-1.51

Which measured percent inhibition of viability value corresponds to Cn1cncc1[C@@](N)(c1ccc(Cl)cc1)c1ccc2c(c1)c(-c1cccc(Cl)c1)cc(=O)n2C [Tipifarnib] (max concentration tested 10000 nM) ?
20.6

Find the recorded percent inhibition of viability belonging to C/C(=C\c1csc(C)n1)[C@@H]1C[C@@H]2O[C@]2(C)CCC[C@H](C)[C@H](O)[C@@H](C)C(=O)C(C)(C)[C@@H](O)CC(=O)O1 [Patupilone] (max concentration tested 1000 nM) and report it.
28.9
